Substrate: PET
protocolText: Proxy for plastic degradation [HPLC-UV]
conditionDescription: pH 9; 40 °C; 24 h
readout: Proxy for plastic degradation (µM)

>>> recordednumber("unnamed (protein) MNFPRASRLMQAAVLGGLMAVSAAATAQTNPYARGPNPTAASLEASAGPFTVRSFTVSRPSGYGAGTVYYPTNAGGTVGAIAIVPGYTARQSSIKWWGPRLASHGFVVITIDTNSTLDQPSSRSSQQMAALRQVASLNGTSSSPIYGKVDTARMGVMGWSMGGGGSLISAANNPSLKAAAPQAPWHSSTNFSSVTVPTLIFACENDSIAPVNSSALPIYDSMSRNAKQFLEINGGSHSCANSGNSNQALIGKKGVAWMKRFMDNDTRYSTFACENPNSTRVSDFRTANCS")
8.7
>>> recordednumber("unnamed (protein) MNFPRASRLMQAAVLGGLMAVSAAATAQTNPYARGPNPTAASLEASAGPFTVRSFTVSRPSGYGAGTVYYPTNAGGTVGAIAIVPGYTARQSSIKWWGPRLASHGFVVITIDTNSTLDQPSSRSSQQMAALRQVASLNGTSSSPIYGKVDTARMGVMGWSMGGGGSLISAANNPSLKAAASQAPWDSSTNFSSVTVPTLIFACENDSIAPVNSSALPIYDSMSRNAKQFLEINGGSHSCANSGNSNQALIGKKGVAWMKRFMDNDTRYSTFACENPNSTRVSDFRTANCS")
1.9
